Test system: HaCat
methodSummary: Cytotoxic Profiling of Annotated Libraries Using Quantitative High-Throughput Screening (AID 1296008); further: on the % scale 0 is the no-effect control and ±100 the full control effect; nearly all actives have a fitted effect of over 60% in size
experimentalSetup: Five cell lines viability, CellTiter-Glo ATP luminescence, 48-72 h; hits give low values
Results filed as inconclusive are left out.
Hi there, I'd appreciate the recorded max response for every entry that follows.
Give bare numbers, in %.

Return max response for the following compound: COC1CC(OC2CCC3(C)C(=CCC4C3C(OC(C)=O)C(OC(=O)/C=C/c3ccccc3)C3(C)C(C(C)O)CCC43O)C2)OC(C)C1OC1CC(OC)C(OC2OC(C)C(OC3OC(CO)C(O)C(O)C3O)C(OC)C2O)C(C)O1 (configuration not stated)
0.93

Give max response for all compounds that follow.
1. COC(=O)C1(C)CCC2(C(=O)O)CCC3(C)C(=CCC4C5(C)CC(O)C(OC6OCC(O)C(O)C6O)C(C)(CO)C5CCC43C)C2C1 (configuration not stated)
2. CC(=O)O[C@@H]1CC(C)=C2[C@H]1[C@H](C)CC[C@H]2/C=C(\C)C(=O)O

1. -27.2
2. -15.4

List the reported max response of each compound below.
1. C=C(C)[C@@H]1CC[C@]2(C)CC[C@]3(C)[C@H](CC[C@@H]4[C@@]5(C)CC[C@@H](O)C(C)(C)[C@@H]5CC[C@]43C)[C@@H]12
2. COC(=O)c1ccnc(-c2cc(C(=O)NCCc3ccccc3)ccn2)c1
3. C[C@@H]1CCC/C=C/[C@H]2CC(=O)C[C@@H]2[C@@H](O)/C=C/C(=O)O1
4. C=C1CC[C@@H]2[C@@](C)(CO[C@@H]3O[C@H](CO)C(O)[C@H](O)C3O)[C@H](O)CC[C@@]2(C)[C@@H]1CC/C(C)=C/CO (some centres not stated)

1: 0.908; 2: 1.24; 3: -12.2; 4: -3.82

The reported numbers originate from PubChem BioAssay (NCATS).
